Target: UniProt O70526
Sequence (O70526 whole entry): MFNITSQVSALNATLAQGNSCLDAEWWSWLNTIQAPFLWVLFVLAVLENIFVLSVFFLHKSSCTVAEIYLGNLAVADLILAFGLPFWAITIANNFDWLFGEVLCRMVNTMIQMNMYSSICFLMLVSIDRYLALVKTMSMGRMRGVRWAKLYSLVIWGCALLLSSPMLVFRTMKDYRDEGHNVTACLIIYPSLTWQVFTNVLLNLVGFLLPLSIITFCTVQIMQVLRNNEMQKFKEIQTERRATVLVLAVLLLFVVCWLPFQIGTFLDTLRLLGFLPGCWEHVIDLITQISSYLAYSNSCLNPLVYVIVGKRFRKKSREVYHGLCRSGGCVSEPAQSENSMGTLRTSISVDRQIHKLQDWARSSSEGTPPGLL
Starred links: 1 amine or outer side, 2 acyl side, 3 side chain; linkers in the order of their positions; H or OH if unused. Non-standard residues stand in square brackets, D forms with d. Residues, ends and D or L forms follow the SMILES beside them. Oic = O=C(O)[C@@H]1C[C@@H]2CCCC[C@@H]2N1; X10 = O=C(C(/C=C/CN[*:1])Cc1ccccc1)[*:2]; X5 = O=C(/C=C/c1cccc(CN[*:1])c1)[*:2]; X11 = O=C(/C=C/C1CCCCC1CN[*:1])[*:2]; X13 = O=C(CCc1cccc(CN[*:1])c1)[*:2]; X2 = O=C(/C=C/c1ccccc1CN[*:1])[*:2]; Hyp = O=C(O)[C@@H]1C[C@@H](O)CN1; X8 = O=C(CCc1ccccc1CN[*:1])[*:2]; dTic = O=C(O)[C@H]1Cc2ccccc2CN1
measured_parameter: Ki (nM)
# value in nM; strip the unit string

# compound, Ki / nM
data = [
    ("N=C(N)NCCC[C@@H](N)C(=O)N[C@@H](CCCNC(=N)N)C(=O)NCC1CCCCC1/C=C/C(=O)N[C@@H](CO)C(=O)N1Cc2ccccc2C[C@@H]1C(=O)N1[C@H](C(=O)N[C@@H](CCCNC(=N)N)C(=O)O)C[C@@H]2CCCC[C@@H]21 (some centres unmarked) (H-[dR]R[X11]S[dTic][Oic]R-OH)", 638),
    ("N=C(N)NCCC[C@@H](N)C(=O)N[C@@H](CCCNC(=N)N)C(=O)NCc1ccccc1CCC(=O)N[C@@H](CO)C(=O)N1Cc2ccccc2C[C@@H]1C(=O)N1[C@H](C(=O)N[C@@H](CCCNC(=N)N)C(=O)O)C[C@@H]2CCCC[C@@H]21 (H-[dR]R[X8]S[dTic][Oic]R-OH)", 563),
    ("N=C(N)NCCC[C@@H](N)C(=O)N[C@@H](CCCNC(=N)N)C(=O)NCc1cccc(CCC(=O)N[C@@H](CO)C(=O)N2Cc3ccccc3C[C@@H]2C(=O)N2[C@H](C(=O)N[C@@H](CCCNC(=N)N)C(=O)O)C[C@@H]3CCCC[C@@H]32)c1 (H-[dR]R[X13]S[dTic][Oic]R-OH)", 466),
]

Ask: Return Ki measured with UniProt O70526 given this compound: N=C(N)NCCC[C@@H](N)C(=O)N[C@@H](CCCNC(=N)N)C(=O)NCc1cccc(/C=C/C(=O)N[C@@H](CO)C(=O)N2Cc3ccccc3C[C@@H]2C(=O)N2[C@H](C(=O)N[C@@H](CCCNC(=N)N)C(=O)O)C[C@@H]3CCCC[C@@H]32)c1 (H-[dR]R[X5]S[dTic][Oic]R-OH)
Reply: 496

Ask: Return Ki measured with UniProt O70526 given this compound: N=C(N)NCCC[C@@H](N)C(=O)N[C@@H](CCCNC(=N)N)C(=O)N1CCC[C@H]1C(=O)N1C[C@H](O)C[C@H]1C(=O)NC/C=C/C(Cc1ccccc1)C(=O)N[C@@H](CO)C(=O)N1Cc2ccccc2C[C@@H]1C(=O)N1[C@H](C(=O)N[C@@H](CCCNC(=N)N)C(=O)O)C[C@@H]2CCCC[C@@H]21 (some centres unmarked) (H-[dR]RP[Hyp][X10]S[dTic][Oic]R-OH)
Reply: 358

Ask: Return Ki measured with UniProt O70526 given this compound: N=C(N)NCCC[C@@H](N)C(=O)N[C@@H](CCCNC(=N)N)C(=O)NCc1ccccc1/C=C/C(=O)N[C@@H](Cc1ccccc1)C(=O)N[C@@H](CO)C(=O)N1Cc2ccccc2C[C@@H]1C(=O)N1[C@H](C(=O)N[C@@H](CCCNC(=N)N)C(=O)O)C[C@@H]2CCCC[C@@H]21 (H-[dR]R[X2]FS[dTic][Oic]R-OH)
Reply: 1270

Ask: Return Ki measured with UniProt O70526 given this compound: N=C(N)NCCC[C@@H](N)C(=O)N[C@@H](CCCNC(=N)N)C(=O)NCc1ccccc1/C=C/C(=O)N[C@@H](CO)C(=O)N1Cc2ccccc2C[C@@H]1C(=O)N1[C@H](C(=O)N[C@@H](CCCNC(=N)N)C(=O)O)C[C@@H]2CCCC[C@@H]21 (H-[dR]R[X2]S[dTic][Oic]R-OH)
Reply: 120

Ask: Return Ki measured with UniProt O70526 given this compound: C[C@H](NC(=O)/C=C/c1ccccc1CNC(=O)[C@H](CCCNC(=N)N)NC(=O)[C@H](N)CCCNC(=N)N)C(=O)N1Cc2ccccc2C[C@@H]1C(=O)N1[C@H](C(=O)N[C@@H](CCCNC(=N)N)C(=O)O)C[C@@H]2CCCC[C@@H]21 (H-[dR]R[X2]A[dTic][Oic]R-OH)
Reply: 278

Source of measurements: patent US5817756A
